Study System: RSV prefusion F (preF, DS-Cav1) (Respiratory syncytial virus)
Protocol Description: BLI, IgG on sensor, 100 nM antigen
Observation Type: pKd
Just the number, please; pKd means minus log10 of the concentration in mol/L.

Some binders with recorded pKd:
>  <Binder>
ADI-41293 (antibody, V domains shown) VH: QVQLQQSGPGLAKPSQTLSLTCTVSGGPISGVDYYWSWIRQPPGKGLEWIGYIYYSGSTYYNPSLKSRVTISVDTSKKQFSLKMSSVTAADTAVYYCARDVGATPYYYYGMDVWGQGTTVTVSS VL: DIVLTQSPDTLSLSPGERATLSCRASQSVRSNYLAWYQHKPGQAPRLLIYGASSRVAGIPDRFSGSGSGTDFTLTISRLEPEDFAVYYCQQYGSSPPSVTFGGGTKVEIK

>  <pKd>
9.30

$$$$
>  <Binder>
ADI-41235 (antibody, V domains shown) VH: QVQLQQWGAGLLKPSETLSLTCGVYGESFSGHYWSWIRQPPGKGLEWMGEIHHSGTTNYNPSLKSRVTISVDTSKNQFSLKLNSVTAADTAVYYCARNPAEDILTGYSPPFHYYYMDVWGKGTTVTVSS VL: QSVLTQPPSVSGAPGQRVTISCTGSSSNIGAGYDVHWYQQIPGTAPKLLIHSNNNRPSGVPDRFSGSKSGTSASLAITGLQAEDEADYYCQSYDSSLSVVFGGGTKLTVL

>  <pKd>
8.33

$$$$

# context switch: different binder, same pKd
Form field: reported pKd of ADI-41284 (antibody, V domains shown) VH: QVQLVQSGGGLVKPGGSLRLSCAASGFTFSNAWMSWVRQAPGKGLEWVGRIKSEVDGGTADYAANVKGRLTISRDDSKNMMYLQMNSLKTEDTAVYYCTTDPGVGWIFGEVKLFRTDPEYWGQGTLVTVSS VL: QSVLTQPPSVSAAPGQKVTISCSGSSSNIGNHYVSWYQQLPGTSPKLLIYDNNKRPSGIPDRFSGSKSGTSATLGITGLQPGDEADYYCGTWDSSLSAVRVFGGGTKVTVL
8.51
